- Test system: IgG production by human lymphocytes
- assay summary: Inhibition of IgG production by human lymphocytes in vitro (SAC activation, ELISA)
- Format: cell-based
- measurement parameters: 1 × 10^-10 molar; 8 days; vehicle control 0.78 ± 0.09
Task for the reader: assign each of the following compounds its reported IgG μg per culture (x ± S.E.M.).

(Q) Please report the recorded IgG μg per culture (x ± S.E.M.) for C=C1/C(=C\C=C2/CCC[C@]3(C)[C@@H]([C@H](C)CC[C@@H](F)C(C)(C)O)CC[C@@H]23)C[C@@H](O)C[C@@H]1O [24R-F--1α,25-(OH)2 --D3] .
(A) 0.21 ± 0.06 μg per culture

(Q) Moving on to the next compound: C=C1/C(=C\C=C2/CCC[C@]3(C)[C@@H]([C@H](C)CCC(F)(F)C(C)(C)O)CC[C@@H]23)C[C@@H](O)C[C@@H]1O [24,24-(F)2 --1α,25-(OH)2 --D3]
(A) 0.11 ± 0.03 μg per culture

(Q) Moving on to the next compound: C=C1/C(=C/C=C2\CCC[C@]3(C)[C@@H]([C@H](C)CCCC(C)(C)O)CC[C@@H]23)C[C@@H](O)C[C@@H]1O [5,6-trans-1α,25-(OH)2 --D3]
(A) 0.55 ± 0.16 μg per culture
